Can you tell me mass density for the items I'm about to list?
Conditions: 298.15 K; 101.33 kPa; Liquid; Vibrating tube method
Please state the figure in kg/m3; there is no need to write the unit.

Recorded mass density of CCCCCCO , please.
814.94

Recorded mass density of CCCCO , please.
805.78

Recorded mass density of CCc1ccccc1 , please.
862.97

Recorded mass density of CCCC[N+]1(C)CCCC1.FC(F)(F)C(F)(F)[P-](F)(F)(F)(C(F)(F)C(F)(F)F)C(F)(F)C(F)(F)F , please.
1582.63

Recorded mass density of c1ccccc1 , please.
873.53

Recorded mass density of CCCc1ccccc1 , please.
858.62

Recorded mass density of CCCCCCCCO , please.
823.27

Recorded mass density of CCCCCCCCCCCCO , please.
823.35

Recorded mass density of c1ccsc1 , please.
1058.48

Recorded mass density of Cc1ccccc1 , please.
863.67

Recorded mass density of CCCCCCCCCCO , please.
826.38
